B1: Exo70 wild type, HA-tagged and Flag-tagged copies co-expressed [rat] / itself (parent)
chain: MIPPQEASARRREIEDKLKQEEETLSFIRDSLEKSDQLTKNMVSILSSFESRLMKLENSIIPVHKQTENLQRLQENVEKTLSCLDHVISYYHVASDTEKIIREGPTGRLEEYLGSMAKIQKAVEYFQDNSPDSPELNKVKLLFERGKESLESEFRSLMTRHSKVISPVLVLDLISADDELEVQEDVVLEHLPESVLQDVIRISRWLVEYGRNQDFMNVYYQIRSSQLDRSIKGLKEHFRKSSSSSGVPYSPAIPNKRKDTPTKKPIKRPGRDDMLDVETDAYIHCVSAFVRLAQSEYQLLMGIIPEHHQKKTFDSLIQDALDGLMLEGENIVSAARKAIIRHDFSTVLTVFPILRHLKQTKPEFDQVLQGTAASTKNKLPGLITSMETIGAKALEDFADNIKNDPDKEYNMPKDGTVHELTSNAILFLQQLLDFQETAGAMLASQETSSSATSYNSEFSKRLLSTYICKVLGNLQLNLLSKSKVYEDPALSAIFLHNNYNYILKSLEKSELIQLVAVTQKTAERSYREHIEQQIQTYQRSWLKVTDYIAEKNLPVFQPGVKLRDKERQMIKERFKGFNDGLEELCKIQKAWAIPDTEQRDKIRQAQKSIVKETYGAFLHRYSSVPFTKNPEKYIKYRVEQVGDMIDRLFDTSA

Variants of: B1
Assay Summary: co-immunoprecipitation (IP: HA, blot: Flag)
Setup Conditions: with itself; 293T cells; without Myc-ULK1; parent: 1
Each record here notes measured response (relative band intensity).
Lab note: record the figure alone, no unit after it.

A selection of reference data follows.
chain 1 S89A ... 1.17
chain 1 S47A S59A S89A ... 1.49
chain 1 S59A ... 1.31

// moving on: another record for response (relative band intensity)
Supply response (relative band intensity) value. Item: chain 1 S47A
1
